Source: BigSolDB 2.1

- experimental.parameters: in water, 298.15 K
endpoint.name: solubility (mole fraction)

- chem.smiles: "Oc1ccc(/C=C/c2cc(O)cc(O)c2)cc1"
  measured.result: "2.78e-06"
